# TESTED TARGET: T1, integrin αVβ5 (UniProt P06756 31-992; P18084 24-719)
# T1 construct: Coated on the ELISA plate
# T1 sequence (P06756 31-992, chain 1 of 2): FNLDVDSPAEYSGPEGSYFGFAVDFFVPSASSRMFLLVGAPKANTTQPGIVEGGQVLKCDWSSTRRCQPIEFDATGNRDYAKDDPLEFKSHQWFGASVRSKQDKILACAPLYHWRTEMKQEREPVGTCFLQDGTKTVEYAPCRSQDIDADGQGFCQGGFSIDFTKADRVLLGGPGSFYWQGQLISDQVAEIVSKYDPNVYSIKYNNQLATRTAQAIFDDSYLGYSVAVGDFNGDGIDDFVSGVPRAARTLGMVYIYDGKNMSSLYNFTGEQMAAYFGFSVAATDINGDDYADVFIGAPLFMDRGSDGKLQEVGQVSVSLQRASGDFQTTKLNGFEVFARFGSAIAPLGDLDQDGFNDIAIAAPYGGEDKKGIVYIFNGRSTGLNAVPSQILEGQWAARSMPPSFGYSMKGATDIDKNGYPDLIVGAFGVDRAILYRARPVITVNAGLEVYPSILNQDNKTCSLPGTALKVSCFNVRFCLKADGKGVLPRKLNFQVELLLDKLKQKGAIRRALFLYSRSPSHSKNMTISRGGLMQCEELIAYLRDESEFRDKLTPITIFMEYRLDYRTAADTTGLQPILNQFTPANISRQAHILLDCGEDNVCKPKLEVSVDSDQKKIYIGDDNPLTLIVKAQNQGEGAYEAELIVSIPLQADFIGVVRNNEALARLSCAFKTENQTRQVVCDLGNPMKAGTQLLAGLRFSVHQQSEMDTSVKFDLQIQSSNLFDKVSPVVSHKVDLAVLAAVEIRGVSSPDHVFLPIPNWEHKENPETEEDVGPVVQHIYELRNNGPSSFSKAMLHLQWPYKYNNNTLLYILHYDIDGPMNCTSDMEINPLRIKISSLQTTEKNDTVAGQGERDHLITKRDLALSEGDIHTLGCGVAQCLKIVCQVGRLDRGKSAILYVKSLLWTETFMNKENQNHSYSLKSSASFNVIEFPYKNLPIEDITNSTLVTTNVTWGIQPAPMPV
# T1 sequence (P18084 24-719, chain 2 of 2): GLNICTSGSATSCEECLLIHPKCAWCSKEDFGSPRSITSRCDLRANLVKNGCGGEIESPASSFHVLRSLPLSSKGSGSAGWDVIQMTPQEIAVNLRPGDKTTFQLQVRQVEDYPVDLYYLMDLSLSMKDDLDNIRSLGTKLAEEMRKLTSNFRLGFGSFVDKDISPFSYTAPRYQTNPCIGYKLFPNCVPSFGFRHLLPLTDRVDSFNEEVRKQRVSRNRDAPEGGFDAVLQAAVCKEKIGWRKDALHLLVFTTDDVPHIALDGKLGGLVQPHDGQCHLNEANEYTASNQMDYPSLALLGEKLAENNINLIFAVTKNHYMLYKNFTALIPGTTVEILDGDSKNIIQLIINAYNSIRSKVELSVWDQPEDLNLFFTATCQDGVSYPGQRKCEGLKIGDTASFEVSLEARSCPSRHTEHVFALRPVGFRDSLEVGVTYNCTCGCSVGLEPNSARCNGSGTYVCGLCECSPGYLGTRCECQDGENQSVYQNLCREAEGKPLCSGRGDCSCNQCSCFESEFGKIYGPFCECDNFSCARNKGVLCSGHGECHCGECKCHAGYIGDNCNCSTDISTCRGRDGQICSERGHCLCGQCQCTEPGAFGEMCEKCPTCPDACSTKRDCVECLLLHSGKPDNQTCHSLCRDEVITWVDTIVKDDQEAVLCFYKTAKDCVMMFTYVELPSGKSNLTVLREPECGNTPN
# MEASUREMENT DESCRIPTION: ELISA, integrin coated, anti-MICA-HRP
MEASUREMENT TYPE: signal/ng (signal/ng)
Quick note: give the figure in signal/ng, leave out the unit.

INSERT INTO assay_data (binder, endpoint_result) VALUES
  ('soluble MICA generated by pKK40 (loop 5.1 in loop 1) (designed binder) HHHHHHEPHSLRYNLTVLSWDGSVQSGFLTEVHLDGQPFLRCDRQKCRAKPQGQWAEDVLGNKTWDRETRDLTGNGKDLRMTLAHIKDQKEGLHSLQEIRVCEIHEDNSTRSSQHFYYDGELFLSQNLETEEWTMPQSSRAQTLAMNVRNFLKEDAMKTKTHYHAMHADCLQELRRYLKSGVVLRRTVPPMVNVTVTRGDTFTQSVTCRASGFYPWNITLSWRQDGVSLSHDTQQWGDVLPDGNGTYQTWVATRICQGEEQRFTCYMEHSGNHSTHPVPSGK', 27.1);

Shift focus to the following entry.
The measured signal/ng associated with soluble MICA generated by pKK45 (extended loop 3.3sp in loop 1) (designed binder) HHHHHHEPHSLRYNLTVLSWDGSVQSGFLTEVHLDGQPFLRCDRQKCRAKPQGQWAEDVLGNKTWDRETRDLTGNGKDLRMTLAHIKDQKEGLHSLQEIRVCEIHEDNSTRSSQHFYYDGELFLSQNLETEEWTMPQSSRAQTLAMNVRNFLKEDAMKTKTHYHAMHADCLQELRRYLKSGVVLRRTVPPMVNVTSGGSGGGSRVPRGDSDLTSGGSGGGVTCRASGFYPWNITLSWRQDGVSLSHDTQQWGDVLPDGNGTYQTWVATRICQGEEQRFTCYMEHSGNHSTHPVPSGK reads 9.92

The origin of these recorded values is patent EP2658867B1.
